These data points were gathered from the supplement of paper PMC10899765.

Listed here are sequences together with their documented 5+ nucleoli phenotype percent effect.
- Test system: MCF10A
- Method: 5+ nucleoli phenotype percent effect (relative to siNT 0% and siKIF11 100%); higher = more cells with five or more nucleoli
- Experimental Context: 20 nM; 72 h
Measure Name: 5+ nucleoli phenotype percent effect (%)

In [3]: df
Out[3]:
                                 seq_string  target_of_assay  endpoint_result
0  AGGUAGACUGGGAUUUGUUGUU [hsa-miR-3529-5p]           MCF10A            -26.7
1  GUGAGCCAGUGGAAUGGAGAGG [hsa-miR-6807-5p]           MCF10A             16.4
2     UGUGUCCGGGAAGUGGAGGAGG [hsa-miR-4669]           MCF10A            -24.1
3     UGCGGCAGAGCUGGGGUCA [hsa-miR-6820-5p]           MCF10A             3.87
4  UCUCUGAGCAAGGCUUAACACC [hsa-miR-4653-5p]           MCF10A            -12.4
5          UUGUCUGCUGAGUUUCC [hsa-miR-4288]           MCF10A            -15.9
